Values were extracted from ChEMBL document CHEMBL4689842.

# Tested on: Fibroblast
# test_description: Multiplex assay against human fibroblast
# Type: toxicity, cell-based
# condition_label: 24 h, 1 µM, compound concentration 1 uM, replicate 1
result_type: Population Fragmented Nuclei (%)

[[record]]
compound = "COc1ccccc1CN[C@H]1C2CCN(CC2)[C@H]1C(c1ccccc1)c1ccccc1"
tested_target = "Fibroblast"
result_type = "Population Fragmented Nuclei (%)"
reported = "26%"

[[record]]
compound = "Cc1c[nH]c2nccc(Oc3c(F)cc(Nc4cc(Cl)nc(N)n4)cc3F)c12"
tested_target = "Fibroblast"
result_type = "Population Fragmented Nuclei (%)"
reported = "32%"

[[record]]
compound = "CCCSc1nc(N[C@@H]2C[C@H]2c2ccc(F)c(F)c2)c2nnn([C@@H]3C[C@H](OCCO)[C@@H](O)[C@H]3O)c2n1"
tested_target = "Fibroblast"
result_type = "Population Fragmented Nuclei (%)"
reported = "18%"

[[record]]
compound = "CC(C)NC(=O)N1CC[C@H](NC2=Nc3cc(F)ccc3N(CC(F)F)c3ccc(Cl)cc32)C1"
tested_target = "Fibroblast"
result_type = "Population Fragmented Nuclei (%)"
reported = "21%"

[[record]]
compound = "Cc1ccc(C)c(Oc2ccncc2C(=O)N2CCN(C3CC3)c3ccccc32)c1"
tested_target = "Fibroblast"
result_type = "Population Fragmented Nuclei (%)"
reported = "19%"

[[record]]
compound = "Cc1cccc(CN2CCN(C(c3ccccc3)c3ccc(Cl)cc3)CC2)c1.Cl.Cl (stereo not drawn)"
tested_target = "Fibroblast"
result_type = "Population Fragmented Nuclei (%)"
reported = "21%"

[[record]]
compound = "O=C(c1cc2c(cc1F)OC(c1ccc(F)cc1)(c1ccc(Cl)cc1Cl)O2)N1CCOCC1 (stereo not drawn)"
tested_target = "Fibroblast"
result_type = "Population Fragmented Nuclei (%)"
reported = "17%"


Next compound, please.
Prompt: # return recorded Population Fragmented Nuclei (%) for entry "CC(C)c1noc(N2CCC(COc3ccc(-c4ccc(S(C)(=O)=O)cc4)nc3)CC2)n1"
Response: 27%

* * *

I'd be grateful if you could share measured Population Normal (%) for these entries.
# System: U2OS
# test_description: Multiplex assay against U2OS
# Format: toxicity, cell-based
# condition_label: human, 12 h, 10 µM, compound concentration 10 uM, replicate 2
One number for each entry, in %.

Below: 4 compounds and their reported Population Normal (%).
[[record]]
compound = "CN1CCN(Cc2ccc(Nc3ncc(Cl)c(Nc4ccccc4S(=O)(=O)N(C)C)n3)cc2)CC1"
tested_target = "U2OS"
result_type = "Population Normal (%)"
reported = 90

[[record]]
compound = "Cc1cccc(CN2CCN(C(c3ccccc3)c3ccc(Cl)cc3)CC2)c1.Cl.Cl (stereo not given)"
tested_target = "U2OS"
result_type = "Population Normal (%)"
reported = 93

[[record]]
compound = "Cc1ccc2c(c1)c1c(n2CCc2ccc(C)nc2)CCN(C)C1 [LATREPIRDINE]"
tested_target = "U2OS"
result_type = "Population Normal (%)"
reported = 91

[[record]]
compound = "C=CC(=O)Nc1cccc(Sc2nc(Nc3ccc(N4CCN(C)CC4)cc3)ncc2Cl)c1"
tested_target = "U2OS"
result_type = "Population Normal (%)"
reported = 85


Prompt: # return recorded Population Normal (%) for entry "CCc1ccc(OCc2ccccc2C(=O)Nc2ccc3nc(C)cc(N)c3c2)cc1.Cl"
Response: 87
